Reported Plant response rating, Bermudagrass values follow for various compounds
tested on: bermudagrass; assay: Test C pre-/postemergence herbicide test; assay type: in vivo, Cynodon dactylon; details: 250 g ai/ha; scale 0 to 100 (0 no effect, 100 complete control); visual, 12 to 14 days; preemergence
measured.endpoint: Plant response rating, Bermudagrass

{"smiles.entry": "CCCCOc1cccc(NC(=O)c2cc(C(C)(C)C)nn2CC)c1", "measured.number": 100}
{"smiles.entry": "CCN(CC)C(=O)c1ccnc(NC(=O)c2cc(C(C)(C)C)nn2CC)c1", "measured.number": 95}
{"smiles.entry": "C=Cn1nc(C(C)(C)C)cc1C(=O)Nc1cccc(C(=O)N(CC)CC)c1", "measured.number": 90}
{"smiles.entry": "CCn1nc(C(C)(C)C)cc1C(=O)Nc1cccc(C(=O)NCC(C)C)c1", "measured.number": 80}

###

The entries below come with measured Velvetleaf plant response rating values attached.
test system: velvetleaf; assay: Test B pre-/postemergence herbicide test; assay type: in vivo, Abutilon theophrasti; details: postemergence, 125 g ai/ha; visual rating, scale 0 (no effect) to 100 (complete control)

{"molecule": "CCn1nc(C(C)(C)C)cc1C(=O)Nc1ccnc(C(=O)N(C)C)c1 [Compound 256]", "Velvetleaf plant response rating": 10}
{"molecule": "CCc1nc(C(C)(C)C)sc1C(=O)Nc1cccc(C(=O)NC(C)(C)C)n1 [Compound 216]", "Velvetleaf plant response rating": 0}
{"molecule": "CCOC(=O)c1cccc(NC(=O)c2sc(C(C)(C)C)nc2CC)c1 [Compound 204]", "Velvetleaf plant response rating": 60}
{"molecule": "CCc1nc(C(C)(C)C)sc1C(=O)Nc1cccc(C(=O)N(CC)CC)c1 [Compound 205]", "Velvetleaf plant response rating": 20}

###

system: chickweed; assay: Test C postemergence herbicide test; type: in vivo, Stellaria media; details: Postemergence; 250 g ai/ha; scale 0 to 100, 0 no effect, 100 complete control
Reported Plant response rating, Chickweed values for the following compounds.

{"smiles.entry": "CCNC(=O)c1cccc(NC(=O)c2cc(C(C)(C)C)nn2CC)n1", "Plant response rating, Chickweed": 100}
{"smiles.entry": "CCNC(=O)c1cccc(NC(=O)c2cc(C(C)(C)C)nn2CC(F)(F)F)c1", "Plant response rating, Chickweed": 100}
{"smiles.entry": "CCn1nc(C(C)(C)C)cc1C(=O)Nc1cccc(C(=O)NC2CC2)c1", "Plant response rating, Chickweed": 90}
{"smiles.entry": "CCc1nc(C(C)(C)C)sc1C(=O)Nc1cccc(C(=O)NCC2CC2)c1", "Plant response rating, Chickweed": 80}

###

Reported Plant response rating (0 to 100 scale), Crabgrass, Large by item:
tested on: large crabgrass; assay: Test B pre-/postemergence herbicide test; assay type: in vivo, Digitaria sanguinalis; conditions: 125 g ai/ha; 0 is no effect, 100 is complete control; preemergence
measured.endpoint: Plant response rating (0 to 100 scale), Crabgrass, Large

{"smiles.entry": "CCOC(=O)c1cccc(NC(=O)c2nn(C(C)C)nc2C)c1", "subject.of.test": "large crabgrass", "measured.number": 0}
{"smiles.entry": "CCc1nn(C(C)C)nc1C(=O)Nc1cccc(C(=O)N2CCCCC2)c1", "subject.of.test": "large crabgrass", "measured.number": 90}
{"smiles.entry": "CCN(C(C)=O)C(=O)c1ccc(F)c(NC(=O)c2cc(C(C)(C)C)nn2CC)c1", "subject.of.test": "large crabgrass", "measured.number": 20}
{"smiles.entry": "CN(C)C(=O)c1cccc(NC(=O)c2nn(C(C)(C)C)nc2Br)c1", "subject.of.test": "large crabgrass", "measured.number": 100}
{"smiles.entry": "C#CCNC(=O)c1ccc(F)c(NC(=O)c2nn(C(C)(C)C)nc2CC)c1", "subject.of.test": "large crabgrass", "measured.number": 0}
{"smiles.entry": "CCNC(=O)c1ccc(F)c(NC(=O)c2nn(C(C)C)nc2C)c1", "subject.of.test": "large crabgrass", "measured.number": 0}

###

system: lambsquarters; assay: Test B pre-/postemergence herbicide test; assay type: in vivo, Chenopodium album; details: postemergence, 125 g ai/ha; visual rating, scale 0 (no effect) to 100 (complete control)
Define the label as 1 when Lambsquarters plant response rating is strictly less than 30 and as -1 in all remaining cases.

{"compound": "CCc1nn(C(C)(C)C)cc1C(=O)Nc1cc(C(=O)N(C)CC)ccc1F [Compound 224]", "group.label": -1}
{"compound": "CCn1nc(C(C)(C)C)cc1C(=O)Nc1cccc(C(=O)NCC(C)C)c1 [Compound 61]", "group.label": -1}
{"compound": "CCCn1nc(C(C)(C)C)cc1C(=O)Nc1cccc(C(C)=NO)c1 [Compound 113]", "group.label": -1}
{"compound": "CCn1nc(C(C)(C)C)cc1C(=O)Nc1cccc(C(C)=O)c1 [Compound 122]", "group.label": 1}
{"compound": "CCn1nc(C(C)(C)C)cc1C(=O)Nc1cccc(OCCCF)c1 [Compound 138]", "group.label": -1}
{"compound": "CCn1nc(C(C)(C)C)cc1C(=O)Nc1cccc(C(=O)N(C)OC)n1 [Compound 246]", "group.label": -1}
{"compound": "CC(=NO)c1cccc(NC(=O)c2nn(C(C)(C)C)cc2C(F)(F)F)c1 [Compound 171]", "group.label": 1}
{"compound": "CCNC(=O)c1ccc(F)c(NC(=O)c2sc(C(C)(C)C)nc2CC)c1 [Compound 226]", "group.label": -1}
{"compound": "CCn1nc(C(C)(C)C)cc1C(=O)Nc1nc(C(=O)N2CC=CC2)ccc1F [Compound 281]", "group.label": 1}
{"compound": "CCNC(=O)c1cccc(NC(=O)c2nn(C(C)(C)C)cc2C(F)(F)F)c1 [Compound 170]", "group.label": -1}

###

Test system: corn
Assay: Test B pre-/postemergence herbicide test
Type: in vivo, Zea mays
Conditions: postemergence, 500 g ai/ha; visual rating, scale 0 (no effect) to 100 (complete control)
Protocol: […] At the same time, plants selected from these crop and weed species and also blackgrass (Alopecurus myosuroides Huds.), wheat (Triticum aestivum L.) and wild oat (Avena fatua L.) were treated with postemergence applications of test chemicals formulated in the same manner. […] Treated plants and controls were maintained in a greenhouse for 13 to 15 days, after which time all species were compared to controls and visually evaluated. […]
Listing of recorded Corn plant response rating by entry.

{"smiles.entry": "CCc1nn(C(C)(C)C)cc1C(=O)Nc1cc(C(=O)N(C)CC)ccc1F", "subject.of.test": "corn", "Corn plant response rating": 20}
{"smiles.entry": "CCOc1cccc(NC(=O)c2cn(C(C)(C)C)nc2C)c1", "subject.of.test": "corn", "Corn plant response rating": 10}
{"smiles.entry": "CC(=O)c1cccc(NC(=O)c2sc(C(C)(C)C)nc2C)c1", "subject.of.test": "corn", "Corn plant response rating": 10}
{"smiles.entry": "CCc1nc(C(C)(C)C)sc1C(=O)Nc1cccc(C(=O)NCC2CC2)c1", "subject.of.test": "corn", "Corn plant response rating": 40}
{"smiles.entry": "CCc1nn(C(C)(C)C)cc1C(=O)Nc1cccc(C(C)=O)c1", "subject.of.test": "corn", "Corn plant response rating": 20}
{"smiles.entry": "Cn1nc(C(C)(C)C)cc1C(=O)Nc1cccc(C#N)c1", "subject.of.test": "corn", "Corn plant response rating": 10}
{"smiles.entry": "CCc1nc(C(C)(C)C)sc1C(=O)Nc1cccc(C(=O)N(CC)CC)n1", "subject.of.test": "corn", "Corn plant response rating": 20}
{"smiles.entry": "CCN(CC)C(=O)c1cccc(NC(=O)c2sc(C(C)(C)C)nc2C)c1", "subject.of.test": "corn", "Corn plant response rating": 20}
{"smiles.entry": "CCOc1cccc(NC(=O)c2cc(C(C)(C)C)nn2CC)c1", "subject.of.test": "corn", "Corn plant response rating": 30}

###

system: barnyardgrass; assay: Test C flooded paddy test; format: in vivo, Echinochloa crus-galli; details: 62 g ai/ha, scale 0 to 100 (0 no effect, 100 complete control)
Below is a list of entries, each paired with its recorded Barnyardgrass plant response rating value.
measured.endpoint: Barnyardgrass plant response rating

{"smiles.entry": "CCn1nc(C(C)(C)C)cc1C(=O)Nc1ccc(OC)c(OC)c1", "result": 15}
{"smiles.entry": "C=CCNC(=O)c1cccc(NC(=O)c2nn(C(C)C)nc2CC)c1", "result": 10}
{"smiles.entry": "C#CCNC(=O)c1cccc(NC(=O)c2sc(C(C)(C)C)nc2CC)c1", "result": 0}
{"smiles.entry": "CC(=O)c1cccc(NC(=O)c2cc(C(C)(C)C)nn2CCF)c1", "result": 30}
{"smiles.entry": "CCn1nc(C(C)(C)C)cc1C(=O)Nc1cccc(C(C)=O)c1", "result": 20}
{"smiles.entry": "CCc1nc(C(C)(C)C)sc1C(=O)Nc1cc(C(=O)N(C)C)ccc1F", "result": 35}
{"smiles.entry": "CCc1nn(C(C)C)nc1C(=O)Nc1cccc(C(=S)N(C)C)c1", "result": 20}
{"smiles.entry": "CCNC(=O)c1cncc(NC(=O)c2cc(C(C)(C)C)nn2CC)c1", "result": 0}
{"smiles.entry": "CCNC(=O)c1cccc(NC(=O)c2nn(C(C)C)nc2CC)c1", "result": 0}
